biological target: T1, canine NGF tagged at the C-terminus with the Flag tag (canine, UniProt A0A8I3PYI3 122-241); assay: SPR off-rate screen, Fab-SASA on BSA chip
T1 construct: mature; Expressed with baculovirus technology; also called feline NGF (processed form identical)
T1 sequence (A0A8I3PYI3 entry or part of it): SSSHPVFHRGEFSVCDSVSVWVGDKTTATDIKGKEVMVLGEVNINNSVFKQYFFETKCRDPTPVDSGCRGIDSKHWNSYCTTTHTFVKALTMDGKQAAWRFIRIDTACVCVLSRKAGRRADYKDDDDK
This section presents binders with their documented pKd values.
Keep it numeric: pKd is minus log10 of the concentration in mol/L.

Reference set, count: 4
felinized clone 101 Fab-SASA variant S28H (VH) (Fab, V domains shown, not shown: small tags and cut ends) VH: DVQLVESGGDLVKPGGSLRLTCVASGLHLTSSSMSWVRQAPGKGLQWVSTIYSNGGTYYTDSVKGRFTISKDNAENTLYLQMNNLKTEDTATYYCASIYYYDADYLHWYFDFWGQGALVTVSS VL: EIQMTQSPTSLSASVGDRVTITCRASEGISNNLSWYQQTPGKAPKLLIYATSNLHSGVPSRFSGSGSGTDFTLTISSLQPEDFATYYCQQGYKWPLTFGGGTKLEITR    8.59
felinized clone 101 Fab-SASA variant Y101H (VH) (Fab, V domains shown, not shown: small tags and cut ends) VH: DVQLVESGGDLVKPGGSLRLTCVASGLSLTSSSMSWVRQAPGKGLQWVSTIYSNGGTYYTDSVKGRFTISKDNAENTLYLQMNNLKTEDTATYYCASIYYHDADYLHWYFDFWGQGALVTVSS VL: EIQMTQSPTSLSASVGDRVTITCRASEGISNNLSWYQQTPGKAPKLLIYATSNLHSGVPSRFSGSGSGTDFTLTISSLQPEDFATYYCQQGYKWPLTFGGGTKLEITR    8.79
felinized clone 101 Fab-SASA variant T60H (VH) (Fab, V domains shown, not shown: small tags and cut ends) VH: DVQLVESGGDLVKPGGSLRLTCVASGLSLTSSSMSWVRQAPGKGLQWVSTIYSNGGTYYHDSVKGRFTISKDNAENTLYLQMNNLKTEDTATYYCASIYYYDADYLHWYFDFWGQGALVTVSS VL: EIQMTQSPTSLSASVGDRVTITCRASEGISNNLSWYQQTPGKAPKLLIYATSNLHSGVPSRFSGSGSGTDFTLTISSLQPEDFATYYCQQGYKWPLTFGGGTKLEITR    8.74
felinized clone 101 Fab-SASA variant H55L (VL) (Fab, V domains shown, not shown: small tags and cut ends) VH: DVQLVESGGDLVKPGGSLRLTCVASGLSLTSSSMSWVRQAPGKGLQWVSTIYSNGGTYYTDSVKGRFTISKDNAENTLYLQMNNLKTEDTATYYCASIYYYDADYLHWYFDFWGQGALVTVSS VL: EIQMTQSPTSLSASVGDRVTITCRASEGISNNLSWYQQTPGKAPKLLIYATSNLLSGVPSRFSGSGSGTDFTLTISSLQPEDFATYYCQQGYKWPLTFGGGTKLEITR    8.80

// query Report pKd for felinized clone 101 Fab-SASA variant S34G (VL) (Fab, V domains shown, not shown: small tags and cut ends) VH: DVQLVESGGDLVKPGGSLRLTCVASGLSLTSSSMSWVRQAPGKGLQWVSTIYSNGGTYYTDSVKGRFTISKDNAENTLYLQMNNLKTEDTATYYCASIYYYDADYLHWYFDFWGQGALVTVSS VL: EIQMTQSPTSLSASVGDRVTITCRASEGISNNLGWYQQTPGKAPKLLIYATSNLHSGVPSRFSGSGSGTDFTLTISSLQPEDFATYYCQQGYKWPLTFGGGTKLEITR please.
// result 8.95
